The reader will find reported pIC50 values listed item by item below.
assay: Antiproliferative activity against RET C634R mutant oncogene-transformed mouse NIH3T3MEN2A after 72 hrs; format: functional
Scale explanation: pIC50 corresponds to minus log10 of a concentration expressed in moles per litre.

Sample records with pIC50:
- Compound: "COc1cc2c(cc1OC)/C(=C\\c1ccc(C(=O)Nc3ccccc3)cc1)C(=O)N2"
  pIC50: 4.91
- Compound: "COc1cc2c(cc1OC)C(Cc1ccc(NC(=O)Nc3ccccc3)cc1)C(=O)N2 (stereo not given)"
  pIC50: 4.67
- Compound: "O=C(Nc1ccccc1)Nc1ccc(/C=C2\\C(=O)N(O)c3ccccc32)cc1"
  pIC50: 5.12

Prompt: Which pIC50 is reported for this compound? `COc1cc2c(cc1OC)/C(=C\c1ccc(NC(=O)N3CCN(C)CC3)cc1)C(=O)N2`
Completion: 4.80
